Data origin: patent US11006626B2

Test system: Human Embryo Kidney (HEK) 293 cells
Measurement protocol: Hypothermia/rewarming injury of HEK cells, trypan blue viability count
Format: cell-based
Conditions: Homo sapiens, HEK293, 24 h, 10 nM; 24 h at 4° C., 24 h rewarming; read-out: % cells that survived
Assay metric: viability at 0.01 µM (%)
Give just the numeric value; % need not be written.

Answered cases to consult:
Reported viability at 0.01 µM ( Cc1c(C)c2c(c(C)c1O)CCC(C)(C(=O)NCCC#N)O2 (centres unmarked) ) = 68.4

compound Cc1c2c(c(C(C)C)c(O)c1C(C)C)CCC(C)(C(=O)N1CCN(CC(=O)O)CC1)O2 (centres unmarked) , viability at 0.01 µM observed: 13.3

Sure, the documented viability at 0.01 µM for Cc1c(C)c2c(c(C)c1O)CCC(C)(C(=O)N[C@@H](C(N)=O)c1ccccc1)O2 (some centres unmarked) is 90.9

Further cases:
Data point: Cc1c(C)c2c(c(C)c1O)CCC(C)(C(=O)Nc1ccc(F)cc1)O2 (centres unmarked) ; viability at 0.01 µM = 77.8

Kindly note the recorded viability at 0.01 µM for Cc1c(C)c2c(c(C)c1O)CCC(C)(CN1CCCCC1)O2 (centres unmarked) , which is 0
